Attribution: ChEMBL document CHEMBL3352042

pIC50 by entry:
- System: A549
- assay summary: Cytotoxicity against human A549 cells by MTT assay
- Assay type: functional, cell-based
- reported conditions: Homo sapiens, A549; read-out: IC50
pIC50 is a log-scale quantity: -log10 of the concentration expressed in molar.

>>> df
                            smiles_notation  data_value
0  CC(C)[C@@H](NC(=S)Nc1cc(C(F)(F)F)cc(C(F)(F)F)c1)c1nc2ccccc2[nH]1        4.65
1  CC(C)[C@H](NC(=S)Nc1ccccc1)c1nc2ccccc2[nH]1        5.28
2  CC(C)C[C@H](NC(=S)Nc1ccccc1)c1nc2ccccc2[nH]1        4.54
3  CC(C)C[C@@H](NC(=S)NCc1ccccc1)c1nc2ccccc2[nH]1        4.65
4   C[C@H](NC(=S)Nc1ccccc1)c1nc2ccccc2[nH]1        3.73
5  C[C@@H](NC(=S)Nc1cc(C(F)(F)F)cc(C(F)(F)F)c1)c1nc2ccccc2[nH]1        4.82
6  S=C(NCc1ccccc1)N[C@H](Cc1ccccc1)c1nc2ccccc2[nH]1        4.58
7  S=C(NCc1ccccc1)N[C@@H](Cc1ccccc1)c1nc2ccccc2[nH]1        4.48
8  CC(C)C[C@@H](NC(=S)Nc1ccccc1)c1nc2ccccc2[nH]1        4.73
9  FC(F)(F)c1cc(NC(=S)N[C@@H](Cc2ccccc2)c2nc3ccccc3[nH]2)cc(C(F)(F)F)c1        4.72

Exercise: I'd like to know its pIC50. The compound in question is C[C@@H](NC(=S)NCc1ccccc1)c1nc2ccccc2[nH]1
Key: 4.73

Exercise: Request: S=C(Nc1ccccc1)N[C@H](Cc1ccccc1)c1nc2ccccc2[nH]1
Key: 4.79

Exercise: Try CC(C)[C@@H](NC(=S)Nc1ccccc1)c1nc2ccccc2[nH]1 next.
Key: 4.50

Exercise: Further, for C[C@@H](NC(=S)Nc1ccccc1)c1nc2ccccc2[nH]1 ?
Key: 4.83

Exercise: Same for CC(C)C[C@H](NC(=S)NCc1ccccc1)c1nc2ccccc2[nH]1
Key: 4.12

---

- System: Bacillus subtilis
- assay summary: Antibacterial activity against Bacillus subtilis MTCC 121 after 24 hrs by well diffusion method
- Format: functional
- reported conditions: MTCC 121, 24 h
# reported MIC; entries follow
Lab book: enter the figure in µg/mL, no units written.

Exercise: Would you mind telling me what MIC value was observed for CC(C)[C@H](NC(=S)NCc1ccccc1)c1nc2ccccc2[nH]1 ?
Key: 12.5

Exercise: Note, next up: C[C@H](NC(=S)Nc1ccccc1)c1nc2ccccc2[nH]1
Key: 12.5

Exercise: Cool, now C[C@H](NC(=S)Nc1cc(C(F)(F)F)cc(C(F)(F)F)c1)c1nc2ccccc2[nH]1
Key: 25

Exercise: And the next one, C[C@H](NC(=S)NCc1ccccc1)c1nc2ccccc2[nH]1 ?
Key: 25

Exercise: Now this one: CC(C)C[C@H](NC(=S)Nc1cc(C(F)(F)F)cc(C(F)(F)F)c1)c1nc2ccccc2[nH]1
Key: 12.5

Exercise: Try this compound too: NC[C@@H]1O[C@H](O[C@H]2[C@@H](O)[C@H](O[C@@H]3[C@@H](O)[C@H](N)C[C@H](N)[C@H]3O[C@H]3O[C@H](CN)[C@@H](O)[C@H](O)[C@H]3N)O[C@@H]2CO)[C@H](N)[C@@H](O)[C@@H]1O
Key: 12.5

Exercise: Then CC(C)[C@H](NC(=S)Nc1cc(C(F)(F)F)cc(C(F)(F)F)c1)c1nc2ccccc2[nH]1 ?
Key: 12.5
